Values compiled from patent US7396837B2.

Test system: LoVo
test method notes: SRB colorimetric cell growth inhibition assay, LoVo
Type: cell-based
cond: Homo sapiens, LoVo; GI=growth inhibition; read-out: GI50 LOVO
As shown below, each of these compounds has a reported GI50 value.

chemical string: COc1cc2ccn3c(c(-c4ccc(OS(=O)(=O)C(F)(F)F)c(OC)c4)c4c5cc(OC)c(OS(=O)(=O)C(F)(F)F)cc5oc(=O)c43)c2cc1OC
GI50 (µM): 2.56
--
chemical string: COc1cc(-c2c3n(c4c(=O)oc5cc(OC(=O)CCc6ccccc6)c(OC)cc5c24)CCc2cc(OC(=O)CCc4ccccc4)c(OC)cc2-3)ccc1OC(=O)CCc1ccccc1
GI50 (µM): 0.0424
--
chemical string: CCCCCCCC(=O)Oc1ccc(-c2c3n(c4c(=O)oc5cc(OC(=O)CCCCCCC)c(OC)cc5c24)CCc2cc(OC(=O)CCCCCCC)c(OC)cc2-3)cc1OC
GI50 (µM): 0.634
--
chemical string: COc1cc(-c2c3n(c4c(=O)oc5cc(OC(=O)[C@H](CO)NC(=O)OC(C)(C)C)c(OC)cc5c24)CCc2c-3cc(OC)c(OC)c2OC(=O)[C@H](CO)NC(=O)OC(C)(C)C)ccc1OC(=O)[C@H](CO)NC(=O)OC(C)(C)C
GI50 (µM): 1.61
--
chemical string: COc1cc(-c2c3n(c4c(=O)oc5cc(OC(=O)[C@@H]6CCCN6)c(OC)cc5c24)CCc2c-3cc(OC)c(OC)c2OC(=O)[C@@H]2CCCN2)ccc1OC(=O)[C@@H]1CCCN1
GI50 (µM): 1.35
--
chemical string: C=CCOC(=O)N[C@@H](C)C(=O)Oc1ccc(-c2c3c4cc(OC)c(OC(=O)[C@H](C)NC(=O)OCC=C)cc4oc(=O)c3n3ccc4cc(OC(=O)[C@H](C)NC(=O)OCC=C)c(OC)cc4c23)cc1OC
GI50 (µM): 2.05
--
chemical string: COc1cc2c(cc1O)CCn1c-2cc2c3cc(OC)c(O)cc3oc(=O)c21
GI50 (µM): 0.799
--
chemical string: COc1cc(-c2c3c4cc(OC)c(O)cc4oc(=O)c3n3ccc4c([N+](=O)[O-])cccc4c23)ccc1O
GI50 (µM): 11.1
--
chemical string: COc1cc(-c2c3c4cc(OC)c(OC(C)C)cc4oc(=O)c3n3ccc4c([N+](=O)[O-])cccc4c23)ccc1OC(C)C
GI50 (µM): 3.4

----------
test method notes: SRB colorimetric cell growth inhibition assay, H-MEC-1
Format: cell-based
cond: human, H-MEC-1 cells; H-MEC-1; cell killing (cytotoxic effect); read-out: LC50 H-MEC-1
endpoint label: LC50 (concentration giving 50% net cell killing)

chemical string: COc1cc(-c2c3c4cc(OC)c(OC(=O)[C@@H]5CCCN5)cc4oc(=O)c3n3ccc4cc(OC(=O)[C@@H]5CCCN5)c(OC)cc4c23)ccc1OC(=O)[C@@H]1CCCN1
obs value: 0.0463 µM

chemical string: COc1cc(-c2c3c4cc(OC)c(OC(=O)[C@@H]5CCCN5)cc4oc(=O)c3n3ccc4c(OC(=O)[C@@H]5CCCN5)c(OC)c(OC)cc4c23)ccc1OC(=O)[C@@H]1CCCN1
obs value: 0.84 µM

chemical string: COc1cc(-c2c3c4cc(OC)c(OC(=O)[C@@H](N)Cc5ccccc5)cc4oc(=O)c3n3ccc4c(OC(=O)[C@@H](N)Cc5ccccc5)c(OC)c(OC)cc4c23)ccc1OC(=O)[C@@H](N)Cc1ccccc1
obs value: 0.565 µM

chemical string: COc1cc2ccn3c(c(-c4ccc(OC(=O)[C@@H](N)C(C)C)c(OC)c4)c4c5cc(OC)c(OC(=O)[C@@H](N)C(C)C)cc5oc(=O)c43)c2cc1OC
obs value: 7.16 µM

chemical string: COc1cc(-c2c3n(c4c(=O)oc5cc(O)c(OC)cc5c24)CCc2c-3cc(OC)c(OC)c2O)ccc1O
obs value: 5.72 µM

chemical string: COc1cc(-c2c3c4cc(OC)c(O)cc4oc(=O)c3n3ccc4cc(OC)c(OC)cc4c23)ccc1O
obs value: 19.5 µM

chemical string: COc1cc(-c2c3c4cc(OC)c(OC(=O)[C@@H](N)C(C)C)cc4oc(=O)c3n3ccc4cc(OC(=O)[C@@H](N)C(C)C)c(OC)cc4c23)ccc1OC(=O)[C@@H](N)C(C)C
obs value: 1.35 µM

chemical string: COc1cc2c(cc1OC)-c1c(-c3ccc(OC(=O)[C@H](C)NC(=O)OC(C)(C)C)c(OC)c3)c3c4cc(OC)c(OC(=O)[C@H](C)NC(=O)OC(C)(C)C)cc4oc(=O)c3n1CC2
obs value: 0.922 µM
